- ASSAYED_TARGET: human ASK1 kinase (Homo sapiens, UniProt Q99683)
- Sequence (Q99683 1-1374): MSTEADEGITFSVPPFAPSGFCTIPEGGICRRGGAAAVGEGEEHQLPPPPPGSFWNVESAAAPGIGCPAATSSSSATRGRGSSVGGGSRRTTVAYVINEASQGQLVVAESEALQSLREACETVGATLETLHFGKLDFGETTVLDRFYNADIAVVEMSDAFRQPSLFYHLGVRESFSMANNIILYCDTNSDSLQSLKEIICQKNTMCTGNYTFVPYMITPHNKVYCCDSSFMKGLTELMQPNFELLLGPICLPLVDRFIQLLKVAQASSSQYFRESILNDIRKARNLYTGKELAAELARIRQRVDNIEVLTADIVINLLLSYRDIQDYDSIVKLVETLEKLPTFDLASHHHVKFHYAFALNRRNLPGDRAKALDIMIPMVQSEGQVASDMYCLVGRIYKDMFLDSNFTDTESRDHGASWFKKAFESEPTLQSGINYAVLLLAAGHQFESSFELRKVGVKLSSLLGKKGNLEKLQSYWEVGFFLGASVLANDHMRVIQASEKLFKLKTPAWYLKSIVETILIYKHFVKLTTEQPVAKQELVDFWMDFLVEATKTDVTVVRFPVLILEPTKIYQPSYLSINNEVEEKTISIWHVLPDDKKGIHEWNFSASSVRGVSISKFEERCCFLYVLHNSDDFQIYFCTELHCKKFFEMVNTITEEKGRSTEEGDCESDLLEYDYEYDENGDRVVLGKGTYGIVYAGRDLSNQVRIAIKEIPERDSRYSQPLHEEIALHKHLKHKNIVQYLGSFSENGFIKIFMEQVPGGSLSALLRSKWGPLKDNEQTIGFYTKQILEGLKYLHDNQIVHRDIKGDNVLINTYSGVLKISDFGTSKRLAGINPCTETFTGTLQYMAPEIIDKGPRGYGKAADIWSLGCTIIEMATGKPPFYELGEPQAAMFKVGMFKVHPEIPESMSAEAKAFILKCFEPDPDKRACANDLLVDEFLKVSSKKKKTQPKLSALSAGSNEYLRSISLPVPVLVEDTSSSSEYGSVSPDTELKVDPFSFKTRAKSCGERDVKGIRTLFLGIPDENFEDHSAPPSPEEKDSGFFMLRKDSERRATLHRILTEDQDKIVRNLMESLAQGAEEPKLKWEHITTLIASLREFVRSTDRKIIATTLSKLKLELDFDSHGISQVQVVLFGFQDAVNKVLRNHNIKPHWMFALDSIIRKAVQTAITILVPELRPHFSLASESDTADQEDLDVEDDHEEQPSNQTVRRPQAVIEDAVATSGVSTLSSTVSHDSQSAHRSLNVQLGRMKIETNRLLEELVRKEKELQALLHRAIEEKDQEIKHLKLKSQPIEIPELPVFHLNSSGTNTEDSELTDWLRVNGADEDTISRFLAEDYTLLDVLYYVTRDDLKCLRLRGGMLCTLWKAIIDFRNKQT
OBSERVABLE: IC50 (µM)
Give bare numbers, in µM.

Ask | Requested field: IC50. Item: O=C(NC1CCN(c2nc[nH]c3nccc2-3)CC1)c1ccc(N2CCCC2)cc1
Reply | 25.1
